Biological target: human Trk A kinase (Homo sapiens (Human), UniProt P04629)
Sequence (P04629 442-796): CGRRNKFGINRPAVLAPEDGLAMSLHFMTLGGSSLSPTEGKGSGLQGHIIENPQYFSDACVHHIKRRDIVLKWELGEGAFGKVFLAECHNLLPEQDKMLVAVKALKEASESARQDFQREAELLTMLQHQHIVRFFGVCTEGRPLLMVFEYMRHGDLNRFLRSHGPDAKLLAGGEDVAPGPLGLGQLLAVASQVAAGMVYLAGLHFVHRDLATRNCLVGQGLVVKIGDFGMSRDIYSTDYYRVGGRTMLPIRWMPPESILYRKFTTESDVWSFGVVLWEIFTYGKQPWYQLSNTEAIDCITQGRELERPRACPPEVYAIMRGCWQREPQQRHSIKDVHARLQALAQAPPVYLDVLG
pIC50: −log10 of the molar value.
READOUT: pIC50

COc1nc(N[C@@H](C)c2ccc(F)cn2)nc2c1ncn2-c1cc(C)[nH]n1    7.02
CC(C)Oc1cc(-n2cnc3cnc(N[C@@H](C)c4ccc(F)cn4)nc32)n[nH]1    8.52
CC(C)Oc1cc(-n2cnc3ccc(N[C@@H](C)c4ncc(F)cn4)nc32)n[nH]1    8.52
Cc1cc(-n2cnc3c(C(=O)N4CCOCC4)nc(N[C@@H](C)c4ncc(F)cn4)nc32)n[nH]1    5.14

###

human Trk A kinase (Homo sapiens (Human), UniProt P04629) IC50 data
READOUT: IC50

C[C@H](Nc1ncc2ncn(-c3cc(C4CC4)[nH]n3)c2n1)c1ncc(F)cn1    12 nM
CC(C)Oc1cc(-n2cnc3ccc(N[C@@H](CO)c4ccc(F)cn4)nc32)n[nH]1    3 nM
Cc1cc(-n2cnc3c(N4CCOCC4)nc(N[C@@H](C)c4ccc(F)cn4)nc32)n[nH]1    773 nM
Cc1cc(-n2cnc3ccc(N[C@@H](C)c4ccc(F)cn4)nc32)n[nH]1    14 nM
Cc1cc(-n2cnc3c(NC4CCOCC4)nc(N[C@@H](C)c4ccc(F)cn4)nc32)n[nH]1    475 nM
Cc1cc(-n2cnc3cc(F)c(N[C@@H](C)c4ncc(F)cn4)nc32)n[nH]1    3810 nM
